Reference source for all entries: paper PMC8694169

As shown below, each of these sequences has a reported EC50 value.
- measurement-target: HLA-A*24:02 (Homo sapiens, UniProt P04439, D101N/D140Y/D185E/E176V/E190D/F33S/G103R/G107R/I119L/I121M/I306V/K335N/L105A/L180Q/L300P/N151K/N90K/Q86E/Q94H/R106L/R138H/R89G/T104I/T345S/V100E/W191G/Y123F)
- assay-remarks: cell-based
- Type: binding
- setup-conditions: […], mean ± SD, triplicate, repeated twice, ND = not detected, read-out: BL50 (half-maximal binding level, peptide concentration that yields 50% relative binding)
Where no end group is shown, it is not given here.
Answer with a number only, understood to be in µM.

Known results for sequences:
AFEKMVSLL [pp1a-3907] | 114
AFYILPSII [pp1a-1352] | 64.4
IFGTVYEKL [pp1a-616] | 122

Next sequence, EC50 to be filled in.
QUERY: # lookup: EC50 of LYIDINGNL [pp1a-1255]
RESULT: 40.4

====

- measurement-target: HLA-A*24:02 (Homo sapiens, UniProt P04439, D101N/D140Y/D185E/E176V/E190D/F33S/G103R/G107R/I119L/I121M/I306V/K335N/L105A/L180Q/L300P/N151K/N90K/Q86E/Q94H/R106L/R138H/R89G/T104I/T345S/V100E/W191G/Y123F)
- assay-remarks: cell-based
- Format: binding
- setup-conditions: […], mean ± SD, triplicate, repeated twice, ND = not detected, read-out: BL50 (half-maximal binding level, peptide concentration that yields 50% relative binding)
pEC50: −log10 of the molar value. Where no end group is shown, it is not given here.
Mark not fulfilled for pEC50 values under 4, and fulfilled for everything at or above.

LYDKLVSSF [pp1a-1182] | fulfilled
NFSKLINII [pp1a-2222] | not fulfilled
FFSYFAVHF [pp1a-2350] | fulfilled
TFFKLVNKF [pp1a-677] | fulfilled
MYASAVVLL [pp1a-3684] | fulfilled
KFLTENLLL [pp1a-1247] | fulfilled
AFVETVKGL [pp1a-486] | not fulfilled
QYELKHGTF [pp1a-1813] | not fulfilled

QUERY: Could you tell me if the measured pEC50 of KFVCDNIKF [pp1a-1929] reaches 4 or more?
RESULT: fulfilled

QUERY: Queued: DYKHYTPSF [pp1a-1971]
RESULT: fulfilled

QUERY: Queued: YFIKGLNNL [pp1a-4229]
RESULT: fulfilled

QUERY: Queued: MFVKHKHAF [pp1a-3627]
RESULT: not fulfilled

QUERY: Queued: GYKSVNITF [pp1a-835]
RESULT: fulfilled

QUERY: Queued: FYENAFLPF [pp1a-3606]
RESULT: fulfilled

QUERY: Queued: PYCYDTNVL [pp1a-2931]
RESULT: fulfilled

====

As shown below, each of these sequences has a reported pEC50 value.
- measurement-target: HLA-A*24:02 (Homo sapiens, UniProt P04439, D101N/D140Y/D185E/E176V/E190D/F33S/G103R/G107R/I119L/I121M/I306V/K335N/L105A/L180Q/L300P/N151K/N90K/Q86E/Q94H/R106L/R138H/R89G/T104I/T345S/V100E/W191G/Y123F)
- assay-remarks: cell-based
- Assay type: binding
- setup-conditions: […], mean ± SD, triplicate, repeated twice, ND = not detected, read-out: BL50 (half-maximal binding level, peptide concentration that yields 50% relative binding)
Where no end group is shown, it is not given here.
Hey, just a heads up that pEC50 is the negative log base 10 of the concentration in molar.

YFTEQPIDL [pp1a-1906] | 3.95
IYLYLTFYL [pp1a-3108] | 4.00
NYLKRRVVF [pp1a-3159] | 3.94
TFCAGSTFI [pp1a-2457] | 3.90
LFLMSFTVL [pp1a-3084] | 4.00
DYQGKPLEF [pp1a-954] | 3.90

QUERY: # lookup: pEC50 of TFDNLKTLL [pp1a-1552]
RESULT: 4.02
